system: OVCAR-8 ovarian; test: NCI tumour cell line growth inhibition, 48 h

smiles_notation | GI50
COc1cc(-c2cc(-c3cc4c([nH]c5ccccc54)c(-c4cc(OC)c(OC)c(OC)c4)n3)cc(-c3ccccc3)n2)cc(OC)c1OC | 4.01 µM
COc1ccc(-c2nc3ccc(-c4nc5ccc(N6CCN(c7ccccc7)CC6)cc5[nH]4)cc3[nH]2)cc1OC | 1.52 µM
C=C(C)[C@@H]1CC[C@]2(C)[C@H](CC=C3[C@@H]4CC(C)(C)CC[C@]4(C(N)=O)CC[C@]32C)[C@@]1(C)CCC#N | 5.24 µM
O=C(Nc1ccncc1)C(=O)c1cn(S(=O)(=O)c2ccc(F)cc2)c2ccccc12 | 4.33 µM
COc1cc2c3c(n(C)c(=O)c2cc1OC)-c1cc2c(cc1/C3=C\CN)OCO2 | 0.774 µM
O=C1C=CC(=O)c2cc3cc(CBr)ccc3cc21 | 5.88 µM
CN(C)CC[PH+](c1ccccc1)c1ccccc1.CN(C)CC[PH+](c1ccccc1)c1ccccc1.[Cl-].[Pd+2] | > 100 µM
[Cl][Hg][c]1cc[c]([Hg][Cl])o1 | 3.39 µM
O=C(CSc1nc2ccccc2nc1-c1ccccc1)Nc1ccc(F)cc1 | 30 µM

====

tested on: A549 NSCLC; test: NCI tumour cell line growth inhibition, 48 h
Some molecules, each annotated with its measured GI50.
reported_property: GI50

molecule | reported_property | result
O=C1OCC2=C1C(c1cccc(Br)c1)c1cc3c(cc1N2CCO)CCC3 (centres undefined) | GI50 | 0.133 µM
CS(=O)(=O)CCNCc1nc(-c2ccc3ncnc(Nc4ccc(OCc5cccc(C(F)(F)F)c5)cc4)c3c2)cs1 | GI50 | > 22 µM
COc1cc(NCc2ccc3nc(N)nc(N)c3c2C)cc(OC)c1OC (tested in a mixture with another compound) | GI50 | 0.000138 µM
CCCN1C(=O)N(CCC)C2C1NC(=S)N2/N=C/C=C/c1ccccc1OC (centres undefined) | GI50 | 0.868 µM
Cc1ccc(NC(=O)CC2CC2)cc1-c1ccc(C(=O)NCC2CC2)cc1 | GI50 | > 25 µM
O=C1Nc2ccccc2/C1=N\[O-].O=C1Nc2ccccc2/C1=N\[O-].[Cu+2] | GI50 | > 100 µM
NCCNc1c2c(c(NCCN)c3[nH]ccc13)C(=O)c1ccccc1C2=O | GI50 | 0.63 µM
O=C(CSc1nc2ccccc2nc1-c1ccccc1)Nc1ccc(F)cc1 | GI50 | 49.3 µM
O=C(N[C@@H](c1ccc(Cl)c(Cl)c1)C1CNC1)c1ccc2cnccc2c1 | GI50 | 0.417 µM

====

tested on: SW-620 colon; experiment: NCI tumour cell line growth inhibition, 48 h
reported_property: TGI

compound | reported_property | result
COc1cc(NS(C)(=O)=O)ccc1Nc1c2ccccc2nc2c1[nH]c1ccc(NC3OC(CO)C(O)C(O)C3O)cc12 (centres undefined) | TGI | 2.08 µM
Cc1ccnc2[nH]c3ccccc3c(=O)c12 | TGI | > 100 µM
Nc1nc(SC/C=C/c2ccccc2)c2[nH]cnc2n1 | TGI | > 100 µM
C1=CC(N(c2ccccc2)C2C=CCCC2)CCC1 (centres undefined) | TGI | > 100 µM
CCOc1ccc(NC(=O)CC#N)cc1 | TGI | > 100 µM
O=C(N[C@@H](c1ccc(Cl)c(Cl)c1)C1CNC1)c1ccc2cnccc2c1 | TGI | 12.3 µM
COc1ccc2c(c1)C(=O)c1c-2c(N2CCN(C(=O)CNCCNCCO)CC2)nc2ccccc12 | TGI | 3.28 µM
Cc1cc(Cl)ccc1NC(=O)C(=O)Cc1nc2ccccc2o1 | TGI | > 100 µM
COC(=O)C1=C(O)C(C(=O)OC)[C@]2(O)[C@H](C(=O)OC)[C@H]1C[C@@H](c1ccc(C(F)(F)F)cc1)[C@H]2C(=O)OC (some centres undefined) | TGI | > 100 µM
Cc1nn(-c2ccccc2)c2c1C(c1ccc(Cl)cc1)NC(=S)N2 (centres undefined) | TGI | 71.1 µM
CN(C)CCCN1CCC2(CCC(C(C)(C)C)CC2)CC1 | TGI | 7.87 µM
O=C(CC1(O)C(=O)N(Cc2ccccc2)c2ccc(F)cc21)c1ccc(C(=O)NCC2CCC3(CC2)OOC2(CCCCC2)OO3)cc1 (centres undefined) | TGI | 4.3 µM
Cc1c2c(C#N)nccc2c(C)c2c1c1ccccc1n2Cc1ccccc1 | TGI | > 100 µM
O=c1cc(-c2cccc3ccccc23)[nH]c2ncccc12 | TGI | > 100 µM
CCOC(=O)Nc1ccc(C)c(NC(=O)OCC)c1 | TGI | > 100 µM
Cc1ncc(C(=O)Nc2ccc(CN3CCN(C)CC3)c(C(F)(F)F)c2)cc1C#Cc1cnc(N)c2ccncc12 | TGI | 3.3 µM
CC(=O)c1sc(Nc2nnc(-c3ccc(-c4nnc(Nc5nc(C)c(C(C)=O)s5)o4)cc3)o2)nc1C | TGI | > 100 µM
CCOC(=O)C(Cc1ccc(CCCC(=O)NCCC(=O)Nc2ccc3nc(C)sc3c2)cc1)C(=O)OCC | TGI | > 100 µM
COc1ccc(/C=C2/N=C(c3ccccc3)N(c3c(C)n(C)n(-c4ccccc4)c3=O)C2=O)cc1OC | TGI | > 100 µM

Attribution: PubChem BioAssay (NCI)
